Sourced from paper PMC8147293

System: Trypanosoma cruzi bloodstream trypomastigotes (BTs)
Test: Screening against bloodstream trypomastigotes (resazurin)
Assay type: cell-based
Conditions: Trypanosoma cruzi, 28 h; Table 1; bloodstream trypomastigotes, 24 h treatment + 4 h resazurin; read-out: Activity IC50 Trypomast.
The reader will find reported pIC50 values listed item by item below.
On this scale, pIC50 is minus log10 of a concentration expressed in M (mol/L).

>  <STRUCTURE_SMILES>
N#Cc1ccccc1C[Se][Se]Cc1ccccc1C#N

>  <DATA_VALUE>
6.05

$$$$
>  <STRUCTURE_SMILES>
O=S(=O)(Nc1ccc([Se][Se]c2ccc(NS(=O)(=O)c3ccc(-c4ccccc4)cc3)cc2)cc1)c1ccc(-c2ccccc2)cc1

>  <DATA_VALUE>
5.70

$$$$

Consider the record given below.
**Query** Can you share its pIC50? I mean this compound: `Cn1ccnc1S(=O)(=O)Nc1ccc([Se][Se]c2ccc(NS(=O)(=O)c3nccn3C)cc2)cc1`
**Result** 5.42

###

System: Trypanosoma cruzi intracellular amastigotes
Assay: Screening against intracellular amastigotes in Vero cells (Giemsa counting)
Format: cell-based
Conditions: IC50 Vero cells/IC50 amastigotes
The reader will find reported Selectivity Index Amast. values listed item by item below.

**Query** Can you share its Selectivity Index Amast.? I mean this compound: `N#C[Se]Cc1ccccc1[N+](=O)[O-]`
**Result** 36

**Query** # repeat for `CSc1ccc(C[Se][Se]Cc2ccc(SC)cc2)cc1`
**Result** 112

**Query** # repeat for `Cc1ccc(S(=O)(=O)Nc2ccc([Se][Se]c3ccc(NS(=O)(=O)c4ccc(C)cc4)cc3)cc2)cc1`
**Result** 16

**Query** # repeat for `N#C[Se]Cc1cccc(C#N)c1`
**Result** 27

**Query** # repeat for `N#Cc1ccccc1C[Se][Se]Cc1ccccc1C#N`
**Result** 16

###

Test system: Mammalian Vero cells
Assay: Cytotoxicity test on Vero cells (resazurin)
Type: cell-based
Settings: Chlorocebus sabaeus; Table S1; cultured Vero cells; read-out: Toxicity IC50 Vero cell
The reader will find reported log10(IC50) values listed item by item below.
The base-10 logarithm of IC50, taken with IC50 in µM, is what appears here.

Before answering, review these 4 worked examples.
>  <STRUCTURE_SMILES>
N#C[Se]Cc1c2ccccc2cc2ccccc12

>  <log10(IC50)>
2.23

$$$$
>  <STRUCTURE_SMILES>
O=S(=O)(Nc1ccc([Se][Se]c2ccc(NS(=O)(=O)c3ccccc3Cl)cc2)cc1)c1ccccc1Cl

>  <log10(IC50)>
1.84

$$$$
>  <STRUCTURE_SMILES>
O=S(=O)(Nc1ccc([Se][Se]c2ccc(NS(=O)(=O)c3cccc4cccnc34)cc2)cc1)c1cccc2cccnc12

>  <log10(IC50)>
1.16

$$$$
>  <STRUCTURE_SMILES>
c1ccc(C[Se][Se]Cc2ccccc2)cc1

>  <log10(IC50)>
1.43

$$$$

**Query** // lookup log10(IC50) | system=Mammalian Vero cells | key= `N#C[Se]Cc1nc2ccccc2nc1C[Se]C#N`
**Result** 1.83

###

System: epimastigotes of T. cruzi Arequipa strain
Assay: Screening against extracellular epimastigotes (resazurin)
Format: cell-based, Trypanosoma cruzi
Settings: Trypanosoma cruzi, 72 h; Table 1; T. cruzi epimastigotes, 48 h treatment + 24 h resazurin; read-out: Activity IC50 Epimast.
ASSAY_READOUT: pIC50
On this scale, pIC50 is minus log10 of a concentration expressed in M (mol/L).

Before answering, review these 2 worked examples.
>  <STRUCTURE_SMILES>
N#Cc1ccccc1C[Se][Se]Cc1ccccc1C#N

>  <TGT>
epimastigotes of T. cruzi Arequipa strain

>  <pIC50>
5.89

$$$$
>  <STRUCTURE_SMILES>
O=S(=O)(Nc1ccc([Se][Se]c2ccc(NS(=O)(=O)c3ccc(-c4ccccc4)cc3)cc2)cc1)c1ccc(-c2ccccc2)cc1

>  <TGT>
epimastigotes of T. cruzi Arequipa strain

>  <pIC50>
5.57

$$$$

Consider the record given below.
**Query** // lookup pIC50 | system=epimastigotes of T. cruzi Arequipa strain | key= `Cn1ccnc1S(=O)(=O)Nc1ccc([Se][Se]c2ccc(NS(=O)(=O)c3nccn3C)cc2)cc1`
**Result** 5.44

###

Tested on: Trypanosoma cruzi intracellular amastigotes
Experiment: Screening against intracellular amastigotes in Vero cells (Giemsa counting)
Type: cell-based
Conditions: Trypanosoma cruzi; Table 1; intracellular amastigotes in Vero cells, 72 h; read-out: Activity IC50 Amast.
The reader will find reported pIC50 values listed item by item below.
On this scale, pIC50 is minus log10 of a concentration expressed in M (mol/L).

Before answering, review these 3 worked examples.
>  <MOLECULE>
O=C(Cn1ccnc1[N+](=O)[O-])NCc1ccccc1 [BZN, benznidazole, reference compound]

>  <TGT>
Trypanosoma cruzi intracellular amastigotes

>  <ASSAY_READOUT>
pIC50

>  <DATA_VALUE>
5.08

$$$$
>  <MOLECULE>
CSc1ccc(C[Se][Se]Cc2ccc(SC)cc2)cc1

>  <TGT>
Trypanosoma cruzi intracellular amastigotes

>  <ASSAY_READOUT>
pIC50

>  <DATA_VALUE>
5.92

$$$$
>  <MOLECULE>
N#C[Se]Cc1cccc(C#N)c1

>  <TGT>
Trypanosoma cruzi intracellular amastigotes

>  <ASSAY_READOUT>
pIC50

>  <DATA_VALUE>
6.10

$$$$

**Query** // lookup pIC50 | system=Trypanosoma cruzi intracellular amastigotes | key= `FC(F)(F)c1ccc(C[Se][Se]Cc2ccc(C(F)(F)F)cc2)cc1`
**Result** 6.10

**Query** # repeat for `N#C[Se]Cc1ccccc1[N+](=O)[O-]`
**Result** 6.30

**Query** # repeat for `N#Cc1ccccc1C[Se][Se]Cc1ccccc1C#N`
**Result** 6.00

**Query** # repeat for `O=S(=O)(Nc1ccc([Se][Se]c2ccc(NS(=O)(=O)c3ccc(-c4ccccc4)cc3)cc2)cc1)c1ccc(-c2ccccc2)cc1`
**Result** 5.64

**Query** # repeat for `Cc1ccc(C[Se]C#N)cc1`
**Result** 5.51

**Query** # repeat for `Cn1ccnc1S(=O)(=O)Nc1ccc([Se][Se]c2ccc(NS(=O)(=O)c3nccn3C)cc2)cc1`
**Result** 5.52

**Query** # repeat for `Cc1ccc(S(=O)(=O)Nc2ccc([Se][Se]c3ccc(NS(=O)(=O)c4ccc(C)cc4)cc3)cc2)cc1`
**Result** 5.38

###

Biological target: human erythrocytes CuZn-SOD (Homo sapiens, UniProt P00441)
Sequence (P00441 whole entry): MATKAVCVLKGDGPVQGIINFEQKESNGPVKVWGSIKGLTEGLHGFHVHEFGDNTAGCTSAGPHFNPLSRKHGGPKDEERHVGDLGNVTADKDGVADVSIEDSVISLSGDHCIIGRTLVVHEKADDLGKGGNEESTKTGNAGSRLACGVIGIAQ
pIC50: −log10 of the molar value.
The reader will find reported pIC50 values listed item by item below.

>  <MOLECULE>
FC(F)(F)c1ccc(C[Se][Se]Cc2ccc(C(F)(F)F)cc2)cc1 [compound 8]

>  <DATA_VALUE>
< 4.00

$$$$
>  <MOLECULE>
N#C[Se]Cc1ccccc1[N+](=O)[O-] [compound 15]

>  <DATA_VALUE>
< 4.00

$$$$

**Query** // lookup pIC50 | system=human erythrocytes CuZn-SOD (Homo sapiens, UniProt P00441) | key= CSc1ccc(C[Se][Se]Cc2ccc(SC)cc2)cc1 [compound 10]
**Result** < 4.00

###

Tested on: Mammalian Vero cells
Assay: Cytotoxicity test on Vero cells (resazurin)
Assay type: cell-based
Conditions: Chlorocebus sabaeus, 72 h; Table 1; Vero cells, 48 h + 24 h resazurin; read-out: Toxicity IC50 Vero Cell
ASSAY_READOUT: CC50 (µM)
Only the number, expressed in µM, is required.

>  <STRUCTURE_SMILES>
O=S(=O)(Nc1ccc([Se][Se]c2ccc(NS(=O)(=O)c3ccc(-c4ccccc4)cc3)cc2)cc1)c1ccc(-c2ccccc2)cc1

>  <TGT>
Mammalian Vero cells

>  <UNITS_SYMBOL>
µM

>  <CC50>
48.6

$$$$

**Query** Can you share its CC50? I mean this compound: `N#C[Se]Cc1cccc(C#N)c1`
**Result** 21.7

**Query** # repeat for `Cc1ccc(S(=O)(=O)Nc2ccc([Se][Se]c3ccc(NS(=O)(=O)c4ccc(C)cc4)cc3)cc2)cc1`
**Result** 66.9

**Query** # repeat for `Cc1ccc(C[Se]C#N)cc1`
**Result** 61.3

**Query** # repeat for `N#Cc1ccccc1C[Se][Se]Cc1ccccc1C#N`
**Result** 16.4

**Query** # repeat for `CSc1ccc(C[Se][Se]Cc2ccc(SC)cc2)cc1`
**Result** 135

**Query** # repeat for `Cn1ccnc1S(=O)(=O)Nc1ccc([Se][Se]c2ccc(NS(=O)(=O)c3nccn3C)cc2)cc1`
**Result** 44.7

**Query** # repeat for `FC(F)(F)c1ccc(C[Se][Se]Cc2ccc(C(F)(F)F)cc2)cc1`
**Result** 44.3

**Query** # repeat for `N#C[Se]Cc1ccccc1[N+](=O)[O-]`
**Result** 17.9
